From: patent US10730874B2

SYSTEM UNDER TEST: human activated kallikrein enzyme (plasma kallikrein) (Homo sapiens (Human), UniProt P03952)
Sequence (P03952 391-638): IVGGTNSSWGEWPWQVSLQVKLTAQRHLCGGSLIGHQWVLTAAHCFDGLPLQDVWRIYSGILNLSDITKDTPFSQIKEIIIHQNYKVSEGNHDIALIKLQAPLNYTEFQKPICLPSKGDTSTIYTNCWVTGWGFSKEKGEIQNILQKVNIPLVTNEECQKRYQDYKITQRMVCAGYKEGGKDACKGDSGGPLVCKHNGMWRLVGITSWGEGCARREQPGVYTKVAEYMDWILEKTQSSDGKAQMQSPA
Sequence (P03952 20-390 partner): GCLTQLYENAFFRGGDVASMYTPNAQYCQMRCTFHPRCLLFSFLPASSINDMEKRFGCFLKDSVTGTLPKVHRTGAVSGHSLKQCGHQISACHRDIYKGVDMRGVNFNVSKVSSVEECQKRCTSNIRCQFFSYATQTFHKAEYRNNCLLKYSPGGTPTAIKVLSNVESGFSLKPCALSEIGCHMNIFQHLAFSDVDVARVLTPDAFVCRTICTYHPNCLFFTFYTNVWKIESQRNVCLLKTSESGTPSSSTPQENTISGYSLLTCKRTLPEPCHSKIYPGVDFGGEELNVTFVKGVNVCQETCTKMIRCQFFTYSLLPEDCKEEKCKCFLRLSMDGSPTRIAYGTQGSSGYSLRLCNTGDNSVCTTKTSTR
PROTOCOL NOTES: Inhibition of human activated plasma kallikrein, fluorogenic peptide substrate assay, 500 pM enzyme format
Format: biochemical
RUN CONDITIONS: 500 pM activated kallikrein enzyme, 300 uM Pro-Phe-Arg-7-amido-4-methylcoumarin substrate, 30 min preincubation, 10 min at RT; read-out: Primary Dose Response Assay: Average EC50
Could you please report measured EC50 for the items listed next?

The recorded EC50 for O=C(NCc1ncn2ccc(Cl)c(F)c12)c1cn(Cc2cn3cc(C4CC4)cc(Cc4nnco4)c3n2)nn1 [Example I-210b] is < 1 nM

The recorded EC50 for C=Cc1ccn2cnc(CNC(=O)c3cnn(Cc4cn5cc(C6CC6)ccc5n4)c3)c2c1 [Example I-118] is 1 to 10 nM

The recorded EC50 for COC(=O)c1cc(C(=O)NCc2ncn3ccc(Cl)c(F)c23)cn1Cc1cn2cc(C3CC3)ccc2n1 [Example I-270a] is 1 to 10 nM

The recorded EC50 for CC(C)(O)Cc1cc(C2CC2)cn2cc(Cn3cc(C(=O)NCc4ncn5ccc(Cl)cc45)cn3)nc12 [Example I-109] is < 1 nM

The recorded EC50 for O=C(NCc1ncn2ccc(Cl)c(F)c12)c1cn(Cc2cn3cc(C4CC4)cc(C4COC4)c3n2)nn1 [Example I-169] is < 1 nM

The recorded EC50 for C#Cc1c(C2CC2)ccc2nc(Cn3cc(C(=O)NCc4ncn5ccc(Cl)cc45)cn3)cn12 [Example I-79] is 1 to 10 nM

The recorded EC50 for O=C(NCc1ncn2ccc(Cl)c(F)c12)c1cn(Cc2cn3cc(C4CC4)cc(F)c3n2)nn1 [Example I-171] is < 1 nM

The recorded EC50 for CS(=O)(=O)c1cc(C2CC2)cn2cc(Cn3cc(C(=O)NCc4ncn5ccc(Cl)cc45)cn3)nc12 [Example I-159] is < 1 nM

The recorded EC50 for O=C(NCc1ncn2ccc(Cl)c(F)c12)c1cn(Cc2cn3ncc(C4CC4)cc3n2)nn1 [Example I-217] is 1 to 10 nM

The recorded EC50 for COC(=O)C1CN(c2cc(C3CC3)nn3cc(Cn4cc(C(=O)NCc5ncn6ccc(Cl)c(F)c56)nn4)nc23)C1 [Example I-265a] is < 1 nM

The recorded EC50 for O=C(NCc1ncn2ccc(Br)cc12)c1cnn(Cc2cn3cc(C4CC4)c(Cl)cc3n2)c1 [Example I-25] is 1 to 10 nM

The recorded EC50 for O=C(NCc1ncn2ccc(Br)cc12)c1cnn(Cc2cn3c(Cl)c(Br)ccc3n2)c1 [Example I-40] is < 1 nM

The recorded EC50 for N#Cc1cccc2nc(Cn3cc(C(=O)NCc4ncn5ccc(Br)cc45)cn3)cn12 [Example I-55] is 10 to 100 nM

The recorded EC50 for N#CCCc1cc(C2CC2)cn2cc(Cn3cc(C(=O)NCc4ncn5ccc(Cl)cc45)nn3)nc12 [Example I-184] is < 1 nM

The recorded EC50 for O=C(NCc1ncn2ccc(Cl)cc12)c1cnn(Cc2cn3c(Br)cccc3n2)c1 [Example I-27] is 1 to 10 nM

---

SYSTEM UNDER TEST: human activated kallikrein enzyme (plasma kallikrein) (Homo sapiens (Human), UniProt P03952)
PROTOCOL NOTES: Inhibition of human activated plasma kallikrein, fluorogenic peptide substrate assay, 500 pM enzyme format
Type: biochemical
RUN CONDITIONS: 500 pM activated kallikrein enzyme, 300 uM Pro-Phe-Arg-7-amido-4-methylcoumarin substrate, 30 min preincubation, 10 min at RT; read-out: Primary Dose Response Assay: Average EC50
pEC50: −log10 of the molar value.
Could you please report measured pEC50 for the items listed next?

The recorded pEC50 for `O=C(NCc1ncn2ccc(Cl)c(F)c12)c1cn(Cc2cn3cc(C4CC4)cc(C(F)F)c3n2)nn1` is > 9.00

The recorded pEC50 for `O=C(O)Cc1cc(C2CC2)cn2cc(Cn3cc(C(=O)NCc4ncn5ccc(Cl)cc45)cn3)nc12` is > 9.00

The recorded pEC50 for `O=C(NCc1ncn2ccc(Cl)c(F)c12)c1coc(Cc2cn3cc(C4CC4)ccc3n2)n1` is 8.00 to 9.00

The recorded pEC50 for `O=C(NCc1ncn2ccc(Cl)c(F)c12)c1cn(Cc2cn3cc(C4CC4)ccc3n2)cn1` is > 9.00

The recorded pEC50 for `O=C(O)Cc1cc(C2CC2)cn2cc(Cn3cc(C(=O)NCc4ncn5ccc(Br)c(F)c45)cn3)nc12` is > 9.00

The recorded pEC50 for `O=C(NCc1ncn2ccc(Cl)cc12)c1nnc(Cc2cn3cc(C4CC4)ccc3n2)s1` is 7.00 to 8.00

The recorded pEC50 for `CC(C)(Cc1cc(C2CC2)cn2cc(Cn3cc(C(=O)NCc4ncn5ccc(Cl)cc45)nn3)nc12)C(=O)O` is > 9.00
